system: PXR:RXRa (NR concentration 270 nM, RXRa partner concentration 90 nM); assay: PBM binding z-score (relative to random genomic background probes); higher = stronger binding; sequences stand for … in GC…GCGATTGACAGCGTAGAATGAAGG
readout-kind: PBM binding z-score

{"entry-sequence": "GGAACGAGGGAAAGTTGATAGCAGAGTTTGATGG", "assayed-target": "PXR:RXRa (NR concentration 270 nM, RXRa partner concentration 90 nM)", "number": -0.176}
{"entry-sequence": "TAGCCTAGGTGATGCGGGCCAGTATAGTGTCGGC", "assayed-target": "PXR:RXRa (NR concentration 270 nM, RXRa partner concentration 90 nM)", "number": -0.852}
{"entry-sequence": "CCGACTGGGTCAAGGTTACCATAACGCACAGCCA", "assayed-target": "PXR:RXRa (NR concentration 270 nM, RXRa partner concentration 90 nM)", "number": 2.17}
{"entry-sequence": "CCGCCTGGGGCATAAGGTTACCATAAGCCAGCCC", "assayed-target": "PXR:RXRa (NR concentration 270 nM, RXRa partner concentration 90 nM)", "number": 0.37}
{"entry-sequence": "TAGCCTAAGTCAGATCGGGCCAGTATACGCTATA", "assayed-target": "PXR:RXRa (NR concentration 270 nM, RXRa partner concentration 90 nM)", "number": -0.436}
{"entry-sequence": "CCGAGTAGGTTATGGGGAATTCAGGCAACGGTGA", "assayed-target": "PXR:RXRa (NR concentration 270 nM, RXRa partner concentration 90 nM)", "number": 0.204}
{"entry-sequence": "CCTATTAGTAGACCATAAGGGCAACCGAAGCTCG", "assayed-target": "PXR:RXRa (NR concentration 270 nM, RXRa partner concentration 90 nM)", "number": 0.71}
{"entry-sequence": "CCGACTGGGGCGAAGGTTACCATACTCAGTACGA", "assayed-target": "PXR:RXRa (NR concentration 270 nM, RXRa partner concentration 90 nM)", "number": 0.261}
{"entry-sequence": "ACAGACACGTGATGAAGGTAACTCAGGCTATCAT", "assayed-target": "PXR:RXRa (NR concentration 270 nM, RXRa partner concentration 90 nM)", "number": -0.0986}
{"entry-sequence": "TCTTGTAGATCAATAGAGGTTAAGATAGTGCGCT", "assayed-target": "PXR:RXRa (NR concentration 270 nM, RXRa partner concentration 90 nM)", "number": 2.26}
{"entry-sequence": "AAACCAAGGTGATCGTGAGGTCGTTGATACTAAC", "assayed-target": "PXR:RXRa (NR concentration 270 nM, RXRa partner concentration 90 nM)", "number": 3.05}
{"entry-sequence": "CCTAGCAGGCCAATATGGGTCACTCAAGGCTTGA", "assayed-target": "PXR:RXRa (NR concentration 270 nM, RXRa partner concentration 90 nM)", "number": 1.14}
{"entry-sequence": "ATCTCTAGGTAGCCAAGTTCAGTGAATGCCGAAC", "assayed-target": "PXR:RXRa (NR concentration 270 nM, RXRa partner concentration 90 nM)", "number": 1.2}
{"entry-sequence": "CGAACTAGGTCATTGACAGGTCAGTGAATAGTAA", "assayed-target": "PXR:RXRa (NR concentration 270 nM, RXRa partner concentration 90 nM)", "number": 3.56}
{"entry-sequence": "ATCGAAAGGTCGAGGTGACTATAGAGAAAGGGAA", "assayed-target": "PXR:RXRa (NR concentration 270 nM, RXRa partner concentration 90 nM)", "number": 2.56}
{"entry-sequence": "CCGACTGGGGCAAGGTTACCATTACGCACAGCCA", "assayed-target": "PXR:RXRa (NR concentration 270 nM, RXRa partner concentration 90 nM)", "number": 0.214}
{"entry-sequence": "GCATATAGGTAATACAAAGTGAAAGTCCGATTGT", "assayed-target": "PXR:RXRa (NR concentration 270 nM, RXRa partner concentration 90 nM)", "number": -0.28}
{"entry-sequence": "ATCTCTAGCTAAAAGTTCAGTGAATCCCGAGGAT", "assayed-target": "PXR:RXRa (NR concentration 270 nM, RXRa partner concentration 90 nM)", "number": 1.3}
{"entry-sequence": "ACTAGCAGGCCACGGGTCACTCAAGATTAGTCCG", "assayed-target": "PXR:RXRa (NR concentration 270 nM, RXRa partner concentration 90 nM)", "number": 1.52}
{"entry-sequence": "ATCTCTAGCTAAAGATAGTTCAGTGAATGCAAAT", "assayed-target": "PXR:RXRa (NR concentration 270 nM, RXRa partner concentration 90 nM)", "number": 0.463}
{"entry-sequence": "AGTCAAAGTTCAGTACGAGGTAACGTAAAGCACG", "assayed-target": "PXR:RXRa (NR concentration 270 nM, RXRa partner concentration 90 nM)", "number": 3.02}
{"entry-sequence": "TCTTGTAGATCAACGGGAGGTTAAGAAAGATCGA", "assayed-target": "PXR:RXRa (NR concentration 270 nM, RXRa partner concentration 90 nM)", "number": 0.94}
{"entry-sequence": "GCAGACAGGTGAAACGCAGGTAACTAAGGGTGGC", "assayed-target": "PXR:RXRa (NR concentration 270 nM, RXRa partner concentration 90 nM)", "number": -0.388}
{"entry-sequence": "CGAACGAGGGCATGAGTTGATAACAAATGCCGAT", "assayed-target": "PXR:RXRa (NR concentration 270 nM, RXRa partner concentration 90 nM)", "number": 0.497}
{"entry-sequence": "TCTATTAATTGAAGGGCAACCGACGAGTCCGTTT", "assayed-target": "PXR:RXRa (NR concentration 270 nM, RXRa partner concentration 90 nM)", "number": 0.915}
{"entry-sequence": "CGTCCAAAGTCAATGCTAGGTCAGTGAAAGCATT", "assayed-target": "PXR:RXRa (NR concentration 270 nM, RXRa partner concentration 90 nM)", "number": 0.434}
{"entry-sequence": "CAAACTAGGTCACATAGGTCAAAGTCCGTGCGTA", "assayed-target": "PXR:RXRa (NR concentration 270 nM, RXRa partner concentration 90 nM)", "number": 5.04}
{"entry-sequence": "AGAATGAGGTTATGATCAGGGAAACAGAATACAT", "assayed-target": "PXR:RXRa (NR concentration 270 nM, RXRa partner concentration 90 nM)", "number": 1.02}
{"entry-sequence": "AGAACCAGGGCACGCTGAGTTGATAGCAGAGTAG", "assayed-target": "PXR:RXRa (NR concentration 270 nM, RXRa partner concentration 90 nM)", "number": 0.357}
{"entry-sequence": "GCTGCTAGATCAACTGATGGTCAGCTAAAGCTCG", "assayed-target": "PXR:RXRa (NR concentration 270 nM, RXRa partner concentration 90 nM)", "number": -0.788}
{"entry-sequence": "ATCTCTAGGTAACGATAGTTCAGTGAATGCAAAT", "assayed-target": "PXR:RXRa (NR concentration 270 nM, RXRa partner concentration 90 nM)", "number": 0.926}
{"entry-sequence": "TAGCCTAGGTCATTCAGCGGCCAGTATAGAAAGC", "assayed-target": "PXR:RXRa (NR concentration 270 nM, RXRa partner concentration 90 nM)", "number": 1.94}

The origin of these recorded values is the supplement of paper PMC6555819.
